I'd be grateful if you could share measured IC50 for these entries.
target: Full length SHP2 protein (Recombinant Human SHP-2) (Homo sapiens (Human)); assay: SHP2 biochemical assay (DiFMUP substrate, activating peptide IRSI_2pY); conditions: activating peptide IRSI_2pY 140 nM, DiFMUP, 60 min; read-out: SHP-2 biochemical assay IC50
Sequence (Q06124 2-593): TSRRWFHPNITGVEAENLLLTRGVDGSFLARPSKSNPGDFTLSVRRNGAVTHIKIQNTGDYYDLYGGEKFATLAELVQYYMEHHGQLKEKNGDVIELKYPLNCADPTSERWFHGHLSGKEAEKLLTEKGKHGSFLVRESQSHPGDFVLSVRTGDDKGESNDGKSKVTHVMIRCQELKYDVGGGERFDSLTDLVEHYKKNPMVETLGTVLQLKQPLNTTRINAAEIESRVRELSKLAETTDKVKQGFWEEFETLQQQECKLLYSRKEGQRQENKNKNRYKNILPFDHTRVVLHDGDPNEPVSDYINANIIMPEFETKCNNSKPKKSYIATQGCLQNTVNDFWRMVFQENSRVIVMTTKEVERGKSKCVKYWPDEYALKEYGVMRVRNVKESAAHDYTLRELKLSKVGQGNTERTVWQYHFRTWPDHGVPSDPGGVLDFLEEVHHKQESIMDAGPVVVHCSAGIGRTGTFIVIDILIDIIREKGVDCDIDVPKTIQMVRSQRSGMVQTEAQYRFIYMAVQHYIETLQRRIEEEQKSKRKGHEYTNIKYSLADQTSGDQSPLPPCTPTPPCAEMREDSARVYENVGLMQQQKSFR

INPUT: Returns the measured IC50 for the input compound. Input: COCC(O)CNC1CCN(c2cc(=O)n(-c3cccc(Cl)c3Cl)c(C)n2)CC1 (stereo not shown)
OUTPUT: > 10000 nM

INPUT: # repeat for Cc1nc(N2C[C@H]3COCC[C@@]3(CN)C2)cc(=O)n1-c1cccc(Cl)c1Cl (racemic)
OUTPUT: 4000 nM

INPUT: # repeat for "COc1ccc(-n2c(C)nc(N3CCC4(CC3)CO[C@@H](C)[C@H]4N)c(C)c2=O)c(Cl)c1Cl"
OUTPUT: 500 nM

INPUT: # repeat for Cc1c(N2CCC3(CC2)Oc2cnccc2C3N)nc(C)n(-c2cccc(Cl)c2Cl)c1=O (single isomer, unassigned) [Compound 80c]
OUTPUT: 5 nM
